- Tested on: KU812 (Chronic Myelogenous Leukemia);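 note: after 72 h of two-drug dosing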
- assayMethodText: Bliss excess, mean over the matrix (fraction); higher = more synergy
measuredEndpoint: Bliss excess
# answer = number (no unit)

CC1(C)CCC(CN2CCN(c3ccc(C(=O)NS(=O)(=O)c4ccc(NCC5CCOCC5)c([N+](=O)[O-])c4)c(Oc4cnc5[nH]ccc5c4)c3)CC2)=C(c2ccc(Cl)cc2)C1 [Venetoclax] + CN(C)CCCOc1ccc(-c2ccc3ncc4c(c3c2)n(C2CCOCC2)c(=O)n4C)cn1 [AZD0156] (first compound max 1 µM, 7x7, partner max 1 µM)	-0.0404
Cc1cc2ncnn2cc1Nc1ncc2c(n1)n(C1CCOCC1)c(=O)n2C [AZD7648] + COc1cc([C@@H]2c3cc4c(cc3[C@@H](O[C@@H]3O[C@@H]5CO[C@@H](C)O[C@H]5[C@H](O)[C@H]3O)[C@H]3COC(=O)[C@H]23)OCO4)cc(OC)c1O [Etoposide] (first compound max 10 µM, 7x7, partner max 10 µM)	0.035
C=CCn1c(=O)c2cnc(Nc3ccc(N4CCN(C)CC4)cc3)nc2n1-c1cccc(C(C)(C)O)n1 [AZD1775] + CCc1c2c(nc3ccc(O)cc13)-c1cc3c(c(=O)n1C2)COC(=O)[C@]3(O)CC [SN-38] (first compound max 1 µM, partner max 0.3 µM)	-0.0318

Attention now turns to another entry.
-- ask // returns reported Bliss excess for input COc1cc2ncnc(Nc3ccc(F)c(Cl)c3)c2cc1OCCCN1CCOCC1 [Gefitinib] + CC(C)n1c(=O)n(C)c2cnc3cc(F)c(-c4ccc(OCCCN5CCCCC5)nc4)cc3c21 [AZD1390] (first compound max 10 µM, 7x7, partner max 0.3 µM)
-- reply -0.0436
